Reference source: patent US10351500B2

- Test system: Trichophyton mentagrophytes
- TEST_NAME: anti-fungal growth inhibition, T. mentagrophytes
- Format: cell-based
- CONDITION: Trichophyton mentagrophytes, 168 h; T. mentagraphytes, 25 μM, one week, 30° C., OD 510 nm; read-out: Inhibition rate (25 μM)
Provide the recorded inhibition at 25 µM for the entries that follow.
Numeric only. Scale: %

QUERY: Supply reported inhibition at 25 µM belonging to this compound: C=CCOc1ccc(CCc2cc(OCC=C)cc(OCC=C)c2)cc1 [DR3]
RESULT: 4.64

QUERY: Recall and state the measured inhibition at 25 µM for COc1ccc(C(=O)Oc2ccc(CCc3cc(OC(=O)c4ccc(OC)cc4)cc(OC(=O)c4ccc(OC)cc4)c3)cc2)cc1 [DR6] .
RESULT: 3.33

QUERY: Supply measured inhibition at 25 µM of CC(C)(C)C(=O)Oc1ccc(CCc2cc(OC(=O)C(C)(C)C)cc(OC(=O)C(C)(C)C)c2)cc1 [DR11] in your reply.
RESULT: 13.1

QUERY: Query inhibition at 25 µM for Oc1ccc(/C=C/c2cc(O)cc(O)c2)cc1 [Trans-resveratrol, trans-resveratrol, reference compound]
RESULT: 5.35

QUERY: Please give measured inhibition at 25 µM of the following entry: CCCC(=O)Oc1ccc(CCc2cc(OC(=O)CCC)cc(OC(=O)CCC)c2)cc1 [DR4]
RESULT: 6.03

QUERY: Give reported inhibition at 25 µM value for CCCOc1ccc(CCc2cc(OCCC)cc(OCCC)c2)cc1 [DR2]
RESULT: 4.72

QUERY: Tell us which inhibition at 25 µM value is on record for O=C(Oc1ccc(CCc2cc(OC(=O)C3CCCC3)cc(OC(=O)C3CCCC3)c2)cc1)C1CCCC1 [DR9]
RESULT: 2.19

* * *

- Tested on: Streptococcus mutans
- TEST_NAME: anti-bacterial growth inhibition, S. mutans
- Assay type: cell-based
- CONDITION: Streptococcus mutans; S. mutans, 100 μM, 10 hours, 30° C., OD 600 nm; read-out: Inhibition rate (100 μM)
Kindly state inhibition at 100 µM for each of the entries shown.
The reply should be a number in %, with the unit left off.

QUERY: Supply inhibition at 100 µM value. Item: "COc1ccc(C(=O)Oc2ccc(CCc3cc(OC(=O)c4ccc(OC)cc4)cc(OC(=O)c4ccc(OC)cc4)c3)cc2)cc1"
RESULT: 5.96

QUERY: Identify measured inhibition at 100 µM associated with "C=CC(=O)Oc1ccc(CCc2cc(OC(=O)C=C)cc(OC(=O)C=C)c2)cc1"
RESULT: 68

QUERY: State its inhibition at 100 µM for this compound: "C=CCOc1ccc(CCc2cc(OCC=C)cc(OCC=C)c2)cc1"
RESULT: 7.05

* * *

- System: Streptococcus sobrinus
- TEST_NAME: anti-bacterial growth inhibition, S. sobrinus
- Type: cell-based
- CONDITION: Streptococcus sobrinus; S. sobrinus, 25 μM, 10 hours, 30° C., OD 600 nm; read-out: Inhibition rate (25 μM)
- Method: Evaluation of anti-bacterial activity. In a single well of the 96-well microplate, 10 μL of the testing compound is added into 190 μL of growth medium growth medium (BBL™ Brain Heart Infusion) containing an overnight culture of Streptococcus mutans or Streptococcus sobrinus at a density of approximately 5×10^5 CFU. The testing compounds include dihydro-resveratrol and DR1 to DR11. […]
Assign 1 (yes) to entries whose inhibition at 25 µM meets or exceeds 7%; assign 0 (no) to the rest.

QUERY: Record "COc1ccc(C(=O)Oc2ccc(CCc3cc(OC(=O)c4ccc(OC)cc4)cc(OC(=O)c4ccc(OC)cc4)c3)cc2)cc1" ; criterion: inhibition at 25 µM no lower than 7%. Met?
RESULT: 0 (no)

QUERY: State whether the measured inhibition at 25 µM reaches 7%, counting equality as reaching it, for "O=C(Oc1ccc(CCc2cc(OC(=O)c3ccc(Cl)cc3)cc(OC(=O)c3ccc(Cl)cc3)c2)cc1)c1ccc(Cl)cc1"
RESULT: 1 (yes)

QUERY: Please check the record "C=CCOc1ccc(CCc2cc(OCC=C)cc(OCC=C)c2)cc1" and state if its inhibition at 25 µM is at or above 7%.
RESULT: 1 (yes)

QUERY: Form field: inhibition at 25 µM at least 7%? Entry: "CC(C)(C)C(=O)Oc1ccc(CCc2cc(OC(=O)C(C)(C)C)cc(OC(=O)C(C)(C)C)c2)cc1"
RESULT: 1 (yes)

QUERY: Is inhibition at 25 µM at least 7%? Consider "CCOC(=O)COc1ccc(CCc2cc(OCC(=O)OCC)cc(OCC(=O)OCC)c2)cc1"
RESULT: 1 (yes)

QUERY: Check the entry "O=C(Oc1ccc(CCc2cc(OC(=O)c3ccccc3)cc(OC(=O)c3ccccc3)c2)cc1)c1ccccc1" : does inhibition at 25 µM equal or exceed 7%?
RESULT: 0 (no)

QUERY: Hi, just wondering whether "O=C(Oc1ccc(CCc2cc(OC(=O)C3CCCC3)cc(OC(=O)C3CCCC3)c2)cc1)C1CCCC1" shows inhibition at 25 µM of 7% or higher.
RESULT: 1 (yes)

QUERY: Confirm if inhibition at 25 µM reported for the compound Oc1ccc(/C=C/c2cc(O)cc(O)c2)cc1 [Trans-resveratrol, trans-resveratrol, reference compound] is 7% or above.
RESULT: 0 (no)

* * *

- Test system: Trichophyton rubrum
- TEST_NAME: anti-fungal growth inhibition, T. rubrum
- Format: cell-based
- CONDITION: Trichophyton rubrum, 168 h; T. rubrum, 100 μM, one week, 30° C., OD 510 nm; read-out: Inhibition rate (100 μM)
PARAMETER: inhibition at 100 µM (%)
Write down the numeric answer in % and omit the unit.

QUERY: Annotate the compound "COc1ccc(C(=O)Oc2ccc(CCc3cc(OC(=O)c4ccc(OC)cc4)cc(OC(=O)c4ccc(OC)cc4)c3)cc2)cc1" with its measured inhibition at 100 µM.
RESULT: 20.9

QUERY: In one line, give reported inhibition at 100 µM of the entry "O=C(Oc1ccc(CCc2cc(OC(=O)C3CCCC3)cc(OC(=O)C3CCCC3)c2)cc1)C1CCCC1" .
RESULT: 1.5

QUERY: Give reported inhibition at 100 µM value for "O=C(Oc1ccc(CCc2cc(OC(=O)c3ccccc3)cc(OC(=O)c3ccccc3)c2)cc1)c1ccccc1"
RESULT: 11.6

QUERY: Quick one: give measured inhibition at 100 µM for "CCCC(=O)Oc1ccc(CCc2cc(OC(=O)CCC)cc(OC(=O)CCC)c2)cc1"
RESULT: 36.1

QUERY: For the compound "CCCOc1ccc(CCc2cc(OCCC)cc(OCCC)c2)cc1" , give its measured inhibition at 100 µM value.
RESULT: 37.8

QUERY: Give reported inhibition at 100 µM value for Oc1ccc(/C=C/c2cc(O)cc(O)c2)cc1 [Trans-resveratrol, trans-resveratrol, reference compound]
RESULT: 21.6

QUERY: Tell me its inhibition at 100 µM given "C=CC(=O)Oc1ccc(CCc2cc(OC(=O)C=C)cc(OC(=O)C=C)c2)cc1" as the entry.
RESULT: 77.7

QUERY: Look up and state reported inhibition at 100 µM for "O=C(Oc1ccc(CCc2cc(OC(=O)c3ccc(Cl)cc3)cc(OC(=O)c3ccc(Cl)cc3)c2)cc1)c1ccc(Cl)cc1"
RESULT: 5.78

QUERY: Supply recorded inhibition at 100 µM for "CCOC(=O)COc1ccc(CCc2cc(OCC(=O)OCC)cc(OCC(=O)OCC)c2)cc1" here.
RESULT: 22.6

QUERY: Please look at this compound and report its inhibition at 100 µM: "CC(C)(C)C(=O)Oc1ccc(CCc2cc(OC(=O)C(C)(C)C)cc(OC(=O)C(C)(C)C)c2)cc1"
RESULT: 9.54

QUERY: State its inhibition at 100 µM for this compound: "C=CCOc1ccc(CCc2cc(OCC=C)cc(OCC=C)c2)cc1"
RESULT: 22.3

* * *

Would you kindly list inhibition at 50 µM for each of these compounds?
- Test system: Streptococcus mutans
- TEST_NAME: anti-bacterial growth inhibition, S. mutans
- Format: cell-based
- CONDITION: Streptococcus mutans; S. mutans, 50 μM, 10 hours, 30° C., OD 600 nm; read-out: Inhibition rate (50 μM)
A complete answer gives the number and then names the unit.

QUERY: Please report inhibition at 50 µM for the following compound: O=C(Oc1ccc(CCc2cc(OC(=O)C3CCCC3)cc(OC(=O)C3CCCC3)c2)cc1)C1CCCC1 [DR9]
RESULT: 6.36%

QUERY: Please indicate inhibition at 50 µM recorded for O=C(Oc1ccc(CCc2cc(OC(=O)c3ccccc3)cc(OC(=O)c3ccccc3)c2)cc1)c1ccccc1 [DR7]
RESULT: 1.55%

QUERY: Recall and state the measured inhibition at 50 µM for O=C(Oc1ccc(CCc2cc(OC(=O)c3ccc(Cl)cc3)cc(OC(=O)c3ccc(Cl)cc3)c2)cc1)c1ccc(Cl)cc1 [DR5] .
RESULT: 8.35%
